assay: in vitro; format: in vitro ADME, Diploptera punctata; conditions: female, Diploptera punctata
Ends that are not written are not given here.
reportedProperty: half-life at 6 μM (h)
Numbers only, in h.

Give the measured half-life at 6 μM of DRLYSFGL-NH2 [Dip-AST5, reference compound] .
2.55

----------
tested on: corpora allata of the cockroach Diploptera punctata (JH biosynthesis); test: In vitro radiochemical assay of JH biosynthesis/release by corpora allata; type: cell-based; details: 3 h in vitro radiochemical assay, single 7-day mated CA; read-out: IC50, half-maximal inhibition of JH release
Ends that are not written are not given here.
reportedProperty: IC50 (nM)
One number for each entry, in nM.

Give the measured IC50 of DRLYSFGL-NH2 [Dip-AST5, reference compound] .
3.12

----------
tested on: midgut peptidases; test: in vitro; assay type: in vitro ADME, Diploptera punctata; conditions: female, Diploptera punctata, tissue homogenate
Peptide text beside a SMILES is read from it.
reportedProperty: half-life at 6 μM (min)
Give bare numbers, in min.

Please tell me: half-life at 6 μM of CC(C)C[C@H](NC(=O)C1(NC(=O)[C@H](Cc2ccccc2)NC(=O)[C@H](CC(N)=O)NC(=O)[C@H](Cc2ccc(O)cc2)NC(=O)[C@@H]2CCCN2C(=O)[C@H](CCCNC(=N)N)NC(=O)[C@H](C)N)CC1)C(N)=O [analog 397-2, Ala-Arg-Pro-Tyr-Asn-Phe-Cpa-Leu-NH2] (HELM PEPTIDE1{A.R.P.Y.N.F.[O=C(C1(N[*:1])CC1)[*:2]].L.[am]}$$$$V2.0; N-terminus assumed) , system midgut peptidases?
20.8

----------
Tested on: brain peptidases
Experiment: in vitro
Assay type: in vitro ADME, Diploptera punctata
Conditions: female, tissue homogenate
Description: Day 5 mated female D. punctata were anaesthetized on ice before dissection. Following dissection, tissues were stored in saline (0.9% NaCl pH 7.0–7.2 or cockroach saline; NaCl 150 μM, KCl 12 μM, CaCl2.6 H2O 10 μM, MgCl2.6 H2O 3 μM, glucose 40 μM, HEPES 10 μM at pH 7.2–7.4) on ice. […] Degradation experiments were analyzed by RP-HPLC using a 220×4.6 mm Brownlee Phenyl column (5 μm) on a Spectra-Physics chromatography system with a Spectra-Physics Chromjet integrator and a Spectra-Physics 8490 detector. […]
Peptide text beside a SMILES is read from it.
reportedProperty: half-life (min)
Answers are plain numbers, in min.

Give the measured half-life of CC(C)C[C@H](NC(=O)CNC(=O)C1(NC(=O)[C@H](CC(N)=O)NC(=O)[C@H](Cc2ccc(O)cc2)NC(=O)[C@@H]2CCCN2C(=O)[C@H](CCCNC(=N)N)NC(=O)[C@H](C)N)Cc2ccccc2C1)C(N)=O [analog 396-1, Ala-Arg-Pro-Tyr-Asn-Aic-Gly-Leu-NH2] (HELM PEPTIDE1{A.R.P.Y.N.[O=C(C1(N[*:1])Cc2ccccc2C1)[*:2]].G.L.[am]}$$$$V2.0; N-terminus assumed) .
17.2

----------
system: midgut peptidases; assay: in vitro; type: in vitro ADME, Diploptera punctata; details: female, tissue homogenate
Peptide text beside a SMILES is read from it.
reportedProperty: half-life (min)
Answers are plain numbers, in min.

Give the measured half-life of CC(C)C[C@H](NC(=O)CNC(=O)C1(NC(=O)[C@H](CC(N)=O)NC(=O)[C@H](Cc2ccc(O)cc2)NC(=O)[C@@H]2CCCN2C(=O)[C@H](CCCNC(=N)N)NC(=O)[C@H](C)N)Cc2ccccc2C1)C(N)=O [analog 396-1, Ala-Arg-Pro-Tyr-Asn-Aic-Gly-Leu-NH2] (HELM PEPTIDE1{A.R.P.Y.N.[O=C(C1(N[*:1])Cc2ccccc2C1)[*:2]].G.L.[am]}$$$$V2.0; N-terminus assumed) .
22.6
